system: HL-60(TB) leukemia; assay: NCI-60 one-dose screen, 48 h; conditions: 10 µM unless noted
The panel holds about 83,000 compounds, 20% with a hit somewhere; the sample as a whole holds those more often. Activity calls are given as the source filed them. The calls were made as follows: active = growth percent below 10; inactive = the rest.
Answer with one of the outcomes given here: true (1) (active), false (0) (inactive)

Prompt: # lookup: test call for O=C(CSc1nc2c(n1Nc1ccccc1)-c1ccccc1SC2)Nc1nccs1
Completion: false (0)

Prompt: # lookup: test call for Cc1noc(C)c1-c1cc(O)cc(C(O)c2ccccc2)c1 (centres undefined)
Completion: false (0)

Prompt: # lookup: test call for O=C(c1ccc(-c2ccccc2)cc1)c1ccc([N+](=O)[O-])cc1
Completion: false (0)

Prompt: # lookup: test call for C#CCOc1cccc(Nc2ncnc3cc(NC(=O)C=C)ccc23)c1
Completion: true (1)
